meta.source: patent US20250243281A1

TEST_SYSTEM: T1, hCLEC2D (human, UniProt Q9UHP7 1-191)
T1 construct: Overexpressed on HEK293 or K562 cells; the same id is used for endogenous CLEC2D on NALM6 and Raji cells; also called LLT1
T1 sequence: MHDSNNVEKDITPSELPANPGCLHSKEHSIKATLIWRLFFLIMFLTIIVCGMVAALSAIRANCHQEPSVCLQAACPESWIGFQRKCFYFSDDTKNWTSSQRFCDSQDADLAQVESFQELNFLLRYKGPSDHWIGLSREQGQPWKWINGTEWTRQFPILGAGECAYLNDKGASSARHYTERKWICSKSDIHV
TEST_METHOD_NOTES: flow cytometry, HEK293 transfectants, 100 nM antibody;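 also: antibody applied at a saturating level and incubated with cells for 30 min at room temperature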
Catalogue of % of CD161 binding readings, one per entry.
Report only the number, with the unit % understood.

The examples below pair each entry with its known result.
Ab17 (antibody, human IgG1, V domains shown, IgG purified from yeast culture) VH: QVQLVESGGGLVKPGGSLRLSCAASGFTFSDYYMSWIRQAPGKGLEWVSYISPSGATIYYADSVKGRFTISRDNAKNSLYLQMNSLRAEDTAVYYCARSLMSTGTHLYFDLWGRGTLVTVSS VL: DIQLTQSPSSVSASVGDRVTITCRASQGISSWLAWYQQKPGKAPKLLIYAASSLQSGVPSRFSGSGSGTDFTLTISSLQPEDFATYYCQQVTSVPPYTFGGGTKVEIK : 1.08
Ab12 (antibody, human IgG1, V domains shown, IgG purified from yeast culture) VH: QVQLVESGGGLVKPGGSLRLSCAASGFTFAQYYMSWIRQAPGKGLEWVSYISPSGSTIAYADSVKGRFTISRDNAKNSLYLQMNSLRAEDTAVYYCARSLMATGTHLYFDLWGRGTLVTVSS VL: DIQLTQSPSSVSASVGDRVTITCRASQDISSWLAWYQQKPGKAPKLLIYAASSLQSGVPSRFSGSGSGTDFTLTISSLQPEDFATYYCQQVTSFPPYTFGGGTKVEIK : 1.16

The record that follows has no % of CD161 binding shown yet.
Incoming: GET /values?readout=% of CD161 binding&item= Ab8 (antibody, human IgG1, V domains shown, IgG purified from yeast culture) VH: EVQLLESGGGLVQPGGSLRLSCAASGFTFGTFAMSWVRQAPGKGLEWVSAISGVGGTTYYADSVKGRFTISRDNSKNTLYLQMNSLRAEDTAVYYCAKPLDSSFWADFDLWGRGTLVTVSS VL: DIQLTQSPSSVSASVGDRVTITCRASQTISSWLAWYQQKPGKAPKLLIYAASSLQSGVPSRFSGSGSGTDFTLTISSLQPEDFATYYCQQQSVLPITFGGGTKVEIK
Outgoing: 0.846
